- System: EKVX NSCLC
- EXPERIMENT DESCRIPTION: NCI-60 one-dose screen, 48 h
- ASSAY SETUP: 10 µM unless noted
- Procedure: Growth inhibition of the EKVX human Non-Small Cell Lung tumor cell line is measured as a screen for anti-cancer activity. Cells are grown in 96 well plates and exposed to the test compound for 48 hours. Compounds are tested at a single concentration, which is 10^-5 M for most compounds. The reported endpoint is percent growth (GI% or GIPRCNT), where numbers from 0 - 100% represent growth inhibition, and numbers from -100% - 0 represent cell death. […]
Compounds without any hit were thinned out: in the full panel of roughly 83,000, 20% have a hit. Active and inactive are the calls of the source. How the source made its calls: active means growth percent below 10; inactive means the rest.
# output must be one of active, inactive

Example entries begin here.
CN1CCC(CN2c3ccccc3Sc3ccccc32)C1 (configuration not stated) = inactive
O=C1c2ccccc2Cc2cccc(Cl)c21 = inactive
CC(C)N=C(N)/N=C(\N)Nc1ccc2ccc3ccccc3c2c1 = active

Continue with the compound presented below.
# outcome recorded in this test, key = COC(=O)c1ccc(=O)c2nc3/c(=C/O)c(O)cc(=O)c3[nH]c12
inactive

====

- Test system: SW-620 colon
- EXPERIMENT DESCRIPTION: NCI-60 one-dose screen, 48 h
- ASSAY SETUP: 10 µM unless noted
About 83,000 compounds went through this panel and 20% of them were active in at least one assay; those are over-represented in the sample as a whole. Activity calls are given as the source filed them. The calls were made as follows: active = growth percent below 10; inactive = the rest.
Tick one outcome: active, inactive

The examples below pair each entry with its known result.
CCCCCCCCc1cc(Cl)c(O)c(Cl)c1 = inactive
NNc1cccc([N+](=O)[O-])c1 = inactive
O=C(O)c1cc2c(s1)C(=O)c1sccc1C2=O = active

Could you check what this test reported for CC(=O)Nc1ccc(C(=O)CCl)cc1 ?
active

====

- System: A549/ATCC NSCLC
- EXPERIMENT DESCRIPTION: NCI-60 one-dose screen, 48 h (100 = growth as untreated, 0 = no growth, -100 = all killed)
- ASSAY SETUP: 10 µM unless noted
This is part of a sample that, as a whole, favours compounds with a hit. Of some 83,000 tested, about 20% had one in any assay.
READOUT KIND: growth (%)
Provide only the numeric value, understood in %.

Consider the reported growth for these compounds:
CN(C)c1ccc(/C=C/c2cc[n+](C)c(/C=C/c3ccc(N(C)C)cc3)c2)cc1 = 14.5
CC[n+]1ccc(Nc2ccc(NC(=O)c3ccc(Nc4cc[n+](CC)c5ccc([N+](=O)[O-])cc45)cc3)cc2)cc1 = 66.1
NC(=S)N/N=C\c1nccc2c(N)cccc12 = 12.4
O=C1C=CC(=O)N1c1ccccc1 = 102
CCOC(=O)C1(C)CCCC1N (stereo unspecified) = 110

Name the reported growth value associated with the compound Cc1cc2cccnc2c2ncccc12
12.3

====

- System: SK-MEL-28 melanoma
- EXPERIMENT DESCRIPTION: NCI-60 one-dose screen, 48 h (100 = growth as untreated, 0 = no growth, -100 = all killed)
- ASSAY SETUP: 10 µM unless noted
This is part of a sample that, as a whole, favours compounds with a hit. Of some 83,000 tested, about 20% had one in any assay.
READOUT KIND: growth (%)
API: value field is a number in %; no unit string.

Query for SK-MEL-28 melanoma: what growth does the record show for CC1C(c2ccccc2)OCCN1C(=S)Nc1ccc(S(=O)(=O)N2CCCCC2)cc1 (stereo unspecified) ?
108

Lab note: need growth with SK-MEL-28 melanoma for entry Cc1cc(=O)oc2cc(O)cc(O)c12 , please look it up.
101

Request: growth, test system SK-MEL-28 melanoma, entry CN=C(N)N/N=C(\c1ccccc1)c1ccc(Br)cc1
48

Look up growth with SK-MEL-28 melanoma for this molecule: O=C(Cc1nc2cc(Cl)c(Cl)cc2nc1CC(=O)c1cccnc1)c1cccnc1
87.1

Observed growth on SK-MEL-28 melanoma for O=S(=O)(O)c1cnccn1 , please.
107

// fetch SK-MEL-28 melanoma growth for CCCCCCCCCCCC(=O)OC(C)C(=O)NCCCC (stereo unspecified)
121
